Tested on: PC-14
Assay: Cytotoxicity of compound against human lung adenocarcinoma cell line (PC14)
Type: functional, cell-based
Settings: pc-14
attribute_measured: IC50 (µM)
Your answer should be a plain number; it is taken to be in µM.

Ask | Notebook: pull reported IC50 for PC-14, entry `CISPLATIN`
Reply | 3.87
